system: A20; assay: Cytotoxicity against mouse A20 lymphoma cells assessed as inhibition of cell proliferation incubated for 4 hrs by MTT assay; assay type: functional, cell-based; conditions: A20, 4 h
pIC50: −log10 of the molar value. Where a SMILES comes first, the peptide text is derived from it. [ ]: non-standard residue; d: D form. ξ: configuration not given here. ξDip = NC(C(=O)O)C(c1ccccc1)c1ccccc1
observed-property: pIC50

| molecule | observed-property | numeric-result |
| --- | --- | --- |
| NCCCC[C@H](NC(=O)[C@H](Cc1c[nH]c2ccccc12)NC(=O)[C@H](Cc1c[nH]c2ccccc12)NC(=O)[C@H](CCCCN)NC(=O)[C@H](CCCCN)NC(=O)[C@H](Cc1c[nH]c2ccccc12)NC(=O)[C@H](Cc1c[nH]c2ccccc12)NC(=O)[C@H](CCCCN)NC(=O)[C@@H](N)CCCCN)C(N)=O (H-KKWWKKWWK-NH2) | pIC50 | 4.43 |
| NCCCC[C@H](NC(=O)[C@H](Cc1c[nH]c2ccccc12)NC(=O)C(NC(=O)[C@H](CCCCN)NC(=O)[C@H](CCCCN)NC(=O)[C@H](Cc1c[nH]c2ccccc12)NC(=O)[C@H](Cc1c[nH]c2ccccc12)NC(=O)[C@H](CCCCN)NC(=O)[C@@H](N)CCCCN)C(c1ccccc1)c1ccccc1)C(N)=O (some centres not stated) (H-KKWWKK[ξDip]WK-NH2) | pIC50 | 4.91 |

---

system: Malme-3M; test: Cytotoxicity against human Malme-3M cells assessed as inhibition of cell proliferation incubated for 4 hrs by MTS assay; assay type: functional, cell-based
Where a SMILES comes first, the peptide text is derived from it. [ ]: non-standard residue; d: D form. ξ: configuration not given here. ξDip = NC(C(=O)O)C(c1ccccc1)c1ccccc1
In this section, each of the compounds is paired with its reported IC50.

| compound | IC50, µM |
| --- | --- |
| NCCCC[C@H](NC(=O)C(NC(=O)[C@H](Cc1c[nH]c2ccccc12)NC(=O)[C@H](CCCCN)NC(=O)[C@H](CCCCN)NC(=O)[C@H](Cc1c[nH]c2ccccc12)NC(=O)[C@H](Cc1c[nH]c2ccccc12)NC(=O)[C@H](CCCCN)NC(=O)[C@@H](N)CCCCN)C(c1ccccc1)c1ccccc1)C(N)=O (some centres not stated) (H-KKWWKKW[ξDip]K-NH2) | 3.3 |
| N=C(N)NCCC[C@H](NC(=O)[C@H](Cc1c[nH]c2ccccc12)NC(=O)[C@H](Cc1c[nH]c2ccccc12)NC(=O)[C@H](CCCNC(=N)N)NC(=O)[C@H](CCCNC(=N)N)NC(=O)C(NC(=O)[C@H](Cc1c[nH]c2ccccc12)NC(=O)[C@H](CCCNC(=N)N)NC(=O)[C@@H](N)CCCNC(=N)N)C(c1ccccc1)c1ccccc1)C(N)=O (some centres not stated) (H-RRW[ξDip]RRWWR-NH2) | 10.4 |

---

assay: Ratio of drug concentration in human blood to plasma measured after 60 mins by LC-MS/MS analysis; format: ADME, cell-free
Where a SMILES comes first, the peptide text is derived from it. [ ]: non-standard residue; d: D form. ξ: configuration not given here. ξDip = NC(C(=O)O)C(c1ccccc1)c1ccccc1

| compound | blood plasma ratio at 1 h |
| --- | --- |
| NCCCC[C@H](NC(=O)C(NC(=O)[C@H](Cc1c[nH]c2ccccc12)NC(=O)[C@H](CCCCN)NC(=O)[C@H](CCCCN)NC(=O)[C@H](Cc1c[nH]c2ccccc12)NC(=O)[C@H](Cc1c[nH]c2ccccc12)NC(=O)[C@H](CCCCN)NC(=O)[C@@H](N)CCCCN)C(c1ccccc1)c1ccccc1)C(N)=O (stereo partly specified) (H-KKWWKKW[ξDip]K-NH2) | 0.76 |

---

test: Cytotoxicity against human MRC5 cells assessed as inhibition of cell proliferation incubated for 4 hrs by MTT assay; type: toxicity, cell-based
Where a SMILES comes first, the peptide text is derived from it. [ ]: non-standard residue; d: D form. ξ: configuration not given here. ξBip = NC(Cc1ccc(-c2ccccc2)cc1)C(=O)O; ξDip = NC(C(=O)O)C(c1ccccc1)c1ccccc1; ξ1Nal = NC(Cc1cccc2ccccc12)C(=O)O; ξDap = NCC(N)C(=O)O
Lab note: cut-off is 200 µM. Strictly less in IC50 at 4 h is yes (1). Exactly 200 µM or more is no (0).

| compound | label-value |
| --- | --- |
| N=C(N)NCCC[C@H](NC(=O)[C@H](Cc1c[nH]c2ccccc12)NC(=O)[C@H](Cc1c[nH]c2ccccc12)NC(=O)[C@H](CCCNC(=N)N)NC(=O)[C@H](CCCNC(=N)N)NC(=O)C(NC(=O)[C@H](Cc1c[nH]c2ccccc12)NC(=O)[C@H](CCCNC(=N)N)NC(=O)[C@@H](N)CCCNC(=N)N)C(c1ccccc1)c1ccccc1)C(N)=O (stereo partly specified) (H-RRW[ξDip]RRWWR-NH2) | yes (1) |
| NCCCC[C@H](NC(=O)[C@H](Cc1c[nH]c2ccccc12)NC(=O)[C@H](Cc1c[nH]c2ccccc12)NC(=O)[C@H](CCCCN)NC(=O)[C@H](CCCCN)NC(=O)[C@H](Cc1c[nH]c2ccccc12)NC(=O)C(Cc1ccc(-c2ccccc2)cc1)NC(=O)[C@H](CCCCN)NC(=O)[C@@H](N)CCCCN)C(N)=O (stereo partly specified) (H-KK[ξBip]WKKWWK-NH2) | yes (1) |
| NCCCC[C@H](NC(=O)[C@H](Cc1c[nH]c2ccccc12)NC(=O)[C@H](CCCCN)NC(=O)[C@H](CCCCN)NC(=O)C(NC(=O)[C@H](Cc1c[nH]c2ccccc12)NC(=O)[C@H](CCCCN)NC(=O)[C@H](CCCCN)NC(=O)[C@@H](N)Cc1c[nH]c2ccccc12)C(c1ccccc1)c1ccccc1)C(N)=O (stereo partly specified) (H-WKKW[ξDip]KKWK-NH2) | yes (1) |
| NCCCC[C@H](NC(=O)[C@H](Cc1c[nH]c2ccccc12)NC(=O)[C@H](Cc1c[nH]c2ccccc12)NC(=O)[C@H](CCCCN)NC(=O)[C@H](CCCCN)NC(=O)[C@H](Cc1c[nH]c2ccccc12)NC(=O)C(NC(=O)[C@H](CCCCN)NC(=O)[C@@H](N)CCCCN)C(c1ccccc1)c1ccccc1)C(N)=O (stereo partly specified) (H-KK[ξDip]WKKWWK-NH2) | no (0) |
| NCCCC[C@H](NC(=O)[C@H](Cc1c[nH]c2ccccc12)NC(=O)[C@H](Cc1c[nH]c2ccccc12)NC(=O)[C@H](CCCCN)NC(=O)[C@H](CCCCN)NC(=O)C(Cc1cccc2ccccc12)NC(=O)[C@H](Cc1c[nH]c2ccccc12)NC(=O)[C@H](CCCCN)NC(=O)[C@@H](N)CCCCN)C(N)=O (stereo partly specified) (H-KKW[ξ1Nal]KKWWK-NH2) | no (0) |
| NCC(N)C(=O)NC(CN)C(=O)N[C@@H](Cc1c[nH]c2ccccc12)C(=O)NC(C(=O)NC(CN)C(=O)NC(CN)C(=O)N[C@@H](Cc1c[nH]c2ccccc12)C(=O)N[C@@H](Cc1c[nH]c2ccccc12)C(=O)NC(CN)C(N)=O)C(c1ccccc1)c1ccccc1 (stereo partly specified) (H-[ξDap][ξDap]W[ξDip][ξDap][ξDap]WW[ξDap]-NH2) | no (0) |

---

assay: Protein binding in Han Wistar rat plasma assessed as bound fraction at 200 to 1000 ng/ml incubated for 20 hrs in presence of AEBSF by LC-MS/MS analysis; type: ADME, cell-free; settings: dose 200-1000 ng/ml, read-out: PPB
Where a SMILES comes first, the peptide text is derived from it. [ ]: non-standard residue; d: D form. ξ: configuration not given here. ξDip = NC(C(=O)O)C(c1ccccc1)c1ccccc1

| molecule | fraction unbound at 20 h |
| --- | --- |
| NCCCC[C@H](NC(=O)C(NC(=O)[C@H](Cc1c[nH]c2ccccc12)NC(=O)[C@H](CCCCN)NC(=O)[C@H](CCCCN)NC(=O)[C@H](Cc1c[nH]c2ccccc12)NC(=O)[C@H](Cc1c[nH]c2ccccc12)NC(=O)[C@H](CCCCN)NC(=O)[C@@H](N)CCCCN)C(c1ccccc1)c1ccccc1)C(N)=O (stereo partly specified) (H-KKWWKKW[ξDip]K-NH2) | > 0.25 |

---

system: Malme-3M; assay: Cytotoxicity against human Malme-3M cells assessed as inhibition of cell proliferation incubated for 4 hrs by MTS assay; type: functional, cell-based
Where a SMILES comes first, the peptide text is derived from it. [ ]: non-standard residue; d: D form. ξ: configuration not given here. Bip = N[C@@H](Cc1ccc(-c2ccccc2)cc1)C(=O)O; ξBip = NC(Cc1ccc(-c2ccccc2)cc1)C(=O)O; ξDip = NC(C(=O)O)C(c1ccccc1)c1ccccc1
observed-property: IC50

| molecule | observed-property | result |
| --- | --- | --- |
| NCCCC[C@H](NC(=O)[C@H](Cc1c[nH]c2ccccc12)NC(=O)[C@H](Cc1c[nH]c2ccccc12)NC(=O)[C@H](CCCCN)NC(=O)[C@H](CCCCN)NC(=O)[C@H](Cc1c[nH]c2ccccc12)NC(=O)[C@H](Cc1ccc(-c2ccccc2)cc1)NC(=O)[C@H](CCCCN)NC(=O)[C@@H](N)CCCCN)C(N)=O (H-KK[Bip]WKKWWK-NH2) | IC50 | 7.1 µM |
| NCCCC[C@H](NC(=O)[C@H](Cc1c[nH]c2ccccc12)NC(=O)[C@H](CCCCN)NC(=O)[C@H](CCCCN)NC(=O)C(NC(=O)[C@H](Cc1c[nH]c2ccccc12)NC(=O)[C@H](CCCCN)NC(=O)[C@H](CCCCN)NC(=O)[C@@H](N)Cc1c[nH]c2ccccc12)C(c1ccccc1)c1ccccc1)C(N)=O (stereo partly drawn) (H-WKKW[ξDip]KKWK-NH2) | IC50 | 12.4 µM |
| NCCCC[C@H](NC(=O)[C@H](Cc1c[nH]c2ccccc12)NC(=O)[C@H](Cc1c[nH]c2ccccc12)NC(=O)[C@H](CCCCN)NC(=O)[C@H](CCCCN)NC(=O)[C@H](Cc1c[nH]c2ccccc12)NC(=O)C(Cc1ccc(-c2ccccc2)cc1)NC(=O)[C@H](CCCCN)NC(=O)[C@@H](N)CCCCN)C(N)=O (stereo partly drawn) (H-KK[ξBip]WKKWWK-NH2) | IC50 | 8.9 µM |
